# strict inequality: MDR1-MDCK efflux ratio < 0.8 yields criterion met, everything else yields criterion not met

INSERT INTO results (molecule, class_label) VALUES
  ('CCCNC(=O)Nc1ccc(Oc2ncnc3cc(OC)c(OC)cc23)cc1Cl', 'criterion not met'),
  ('Cc1nc(O)cc(C2CN(C3CCCCC3)C2)n1', 'criterion not met'),
  ('CCCC(=O)Nc1ccc(-n2cccn2)nc1', 'criterion met'),
  ('Cc1ccc(CNC(=O)c2cccnc2)n1C', 'criterion met'),
  ('c1ccc(OCc2nc3cc4ccccc4cc3[nH]2)cc1', 'criterion met');

Kindly review the next molecule as well.
Incoming: # TODO verify MDR1-MDCK efflux ratio < 0.8 strictly for this molecule: CC(COc1ccccc1Cc1ccccc1)N1CCCCC1 (stereo not given)
Outgoing: criterion not met

---

Could you please report measured intrinsic clearance, human liver microsomes for the items listed next?
Give bare numbers, in mL/min/kg.

These solved cases illustrate the format of a correct answer.
INSERT INTO results (smiles_code, unit_info, data_value) VALUES
  ('Cn1ccnc1CNc1cc(Br)ccc1-n1cccn1', 'mL/min/kg', 31.6),
  ('Cn1c(=O)c2c(nc3n2CCN3Cc2c(F)cccc2Cl)n(C)c1=O', 'mL/min/kg', 11.9),
  ('C[C@]1(O)CN(C(=O)Cn2cnc3ccccc32)CC[C@@H]1Oc1ccccc1', 'mL/min/kg', 5.54);

Give me intrinsic clearance, human liver microsomes for each of these compounds, listed below.
1. Cc1[nH]nc(CCC(=O)NCCCOC2CCCCC2)c1C
2. Cc1cc(C(=O)NCCc2ccccn2)c(C)s1
3. CSc1ccc(-c2ccc3n(c2=O)C[C@@H]2CNC[C@H]3C2)cc1

Outgoing:
63.5
63.1
5.01

---

Could you please report measured intrinsic clearance, rat liver microsomes for the items listed next?

These solved cases illustrate the format of a correct answer.
INSERT INTO results (smiles_code, data_value) VALUES
  ('CC(C)CC(=O)NCC(=O)N1CCCC1', '≤ 10.7 mL/min/kg'),
  ('CCOc1ccccc1CNCCc1c[nH]c2ccccc12', '2170 mL/min/kg'),
  ('O=C(O)C1CN(Cc2ccc(OCc3ccc(Cl)c(Cl)c3)cc2)C1', '≤ 10.7 mL/min/kg');

Give me intrinsic clearance, rat liver microsomes for each of these compounds, listed below.
1. C[C@H]1CN(C2COC2)CCN1c1ccc(Nc2cc(-c3ccnc(N4CCn5c(cc6c5CC(C)(C)C6)C4=O)c3CO)cn(C)c2=O)nc1
2. COc1ccc(OCC(=O)N2CCN(C)CC2)cc1

Outgoing:
["≤ 10.7 mL/min/kg", "133 mL/min/kg"]

Incoming: Dear colleague, I am looking for the recorded intrinsic clearance, rat liver microsomes of the following compound: NC(=O)CC1CCN(c2ncccn2)CC1
Outgoing: ≤ 10.7 mL/min/kg

---

Could you please report measured intrinsic clearance, rat liver microsomes for the items listed next?

These solved cases illustrate the format of a correct answer.
INSERT INTO results (smiles_code, data_value) VALUES
  ('COc1ccc(CN2CCN(C(=O)C3CCN(C(=O)C4CC4)CC3)CC2)cc1', '50.4 mL/min/kg'),
  ('COC(=O)[C@@H]1C[C@H](O)CN1CCc1ccccc1F', '3370 mL/min/kg'),
  ('Cc1nn(C)c(C)c1NC(=O)CN1CCC2(CCCCC2)CC1', '497 mL/min/kg'),
  ('Cc1cc(Nc2ccc3c(c2)oc(=O)n3C)nc(C2CC2)n1', '159 mL/min/kg'),
  ('NS(=O)(=O)OC[C@@H]1C[C@@H](n2ccc3c(N[C@H]4CCc5ccccc54)ncnc32)C[C@@H]1O', '680 mL/min/kg');

Give me intrinsic clearance, rat liver microsomes for each of these molecules, listed below.
1. CCC(CC)N1CC[C@H](O)[C@@](O)(COc2cc(C)ccc2Cl)C1
2. COc1ccc(CNC(=O)CCCOc2ccc(C(C)=O)cc2)cc1
3. Cc1cc(Nc2nc(N[C@@H](C)c3ncc(F)cn3)ncc2Cl)n[nH]1
4. NC1(c2nc(-c3ccsc3)no2)CCCCC1
5. O=C(CCNC(=O)c1ccc(OC(F)(F)F)cc1)N[C@@H]1CCCc2ccccc21
6. CSc1cccc(-c2ccccc2-c2nnc(C)o2)c1

Outgoing:
4650 mL/min/kg
644 mL/min/kg
46.3 mL/min/kg
447 mL/min/kg
797 mL/min/kg
2460 mL/min/kg

Give me intrinsic clearance, rat liver microsomes for each of these molecules, listed below.
1. Cc1occc1C(=O)NCC(=O)Nc1nc2cc(Cl)ccc2n1C
2. Cc1cc(C(=O)NCC2CCN(c3ccc4ccccc4n3)CC2)cnc1C
3. CCCCNc1nc2c(cc1C#N)CCC2
4. CN(Cc1cnc2ccccc2n1)S(=O)(=O)N1CCCCCC1
5. Cn1c(-c2ccc(F)cc2)cnc1NC(=O)CCC(=O)N1CC(=O)Nc2ccccc21
6. Nc1ccc2c(c1)ncn2CCc1ccccc1
7. CN(C)c1ccc(C(=O)N2CCN3C(=O)N(Cc4ccccc4)C(=O)[C@H]3C2)cc1

Outgoing:
["195 mL/min/kg", "477 mL/min/kg", "2310 mL/min/kg", "5760 mL/min/kg", "322 mL/min/kg", "28.1 mL/min/kg", "389 mL/min/kg"]

Incoming: Dear colleague, I am looking for the recorded intrinsic clearance, rat liver microsomes of the following molecule: OC(Cn1cncn1)(Cn1cncn1)c1ccc(F)cc1F
Outgoing: ≤ 10.7 mL/min/kg

---

endpoint name: intrinsic clearance, rat liver microsomes (mL/min/kg)
Give bare numbers, in mL/min/kg.

INSERT INTO assay_data (molecule, unit_info, data_value) VALUES
  ('COC(=O)Nc1ccc(Oc2nc3ccccc3o2)cc1', 'mL/min/kg', 29.1),
  ('CC(C)N(C[C@@H]1O[C@@H](n2cnc3c(N)ncnc32)[C@H](O)[C@H]1O)[C@H]1C[C@@H](CCc2nc3cc(C(C)(C)C)ccc3[nH]2)C1', 'mL/min/kg', 835),
  ('Cc1nc(-c2ccccc2)c(C(=O)Nc2ccc(Cl)c(Cl)c2)s1', 'mL/min/kg', 2390);

Give me intrinsic clearance, rat liver microsomes for each of these molecules, listed below.
1. CN(CCN(C)C1CCCC1)C(=O)c1ccc(-c2nc[nH]n2)cc1
2. COCCc1nsc(Oc2ccc(C)cc2Br)n1
3. Cc1cccc(N2CCN(C(=O)c3cncnc3C(C)C)CC2)c1
4. CC(C)c1cccc(CN2C(=O)N(C)C3(CCCCC3)C2=O)n1
5. O=C(O)c1ccc(CN2CC[C@H](c3nc4cc(Cl)ccc4o3)C2)cc1
6. c1cnc2c(Oc3ncnc4sccc34)cccc2c1
7. CN(C)C1CN(c2nc(-c3cnccn3)nc3sc4c(c23)CCCC4)C1

Outgoing:
[19.6, 4590, 1500, 4200, 17.8, 244, 2720]

---

endpoint name: MDR1-MDCK efflux ratio
One number for each entry.

These solved cases illustrate the format of a correct answer.
INSERT INTO assay_data (smiles_code, data_value) VALUES
  ('Cn1c(=O)n(Cc2cccnc2)c(=O)c2ccc(C(F)(F)F)nc21', 0.645),
  ('Cc1ccc(-n2nc(C(=O)N3CC(O)C3)c3c2CCCC3)cc1', 5.67),
  ('Cc1cccc(OC2CN(C(=O)Cn3c(C)nn(-c4ccccc4)c3=O)C2)c1', 0.993),
  ('COc1ccc(C2(NCc3cccc4ncccc34)CC2)cc1', 0.483),
  ('O=S(=O)(NCc1n[nH]c2c1CCCCC2)c1ccc(OC(F)F)cc1', 7.25),
  ('Cc1nccc(-c2cn(Cc3ccccc3)c3cnccc23)n1', 0.675),
  ('OCCC1(CNc2ncc(Br)cn2)CC1', 0.674),
  ('CCCC(=O)N1CCC(c2cccc(C)n2)CC1', 0.574);

Give me MDR1-MDCK efflux ratio for each of these compounds, listed below.
1. Cc1cnn(Cc2nc(Cn3cccn3)no2)c1
2. C1CCN(c2nc(NC3CC3)nc(N3CCCCC3)n2)CC1
3. CCNc1ccnc(-c2cccc(C(=O)NCCCc3cnn(C)c3)c2)n1
4. CCc1nc2ccccc2n1CC(=O)N1CCNC(=O)C1
5. CC(C)(C)n1cc(CNc2cccnc2)cn1
6. CC(=O)Nc1ccc(C(=O)N2CCc3ncncc3C2)cc1
7. O=C(O)Cc1ccc(Oc2ccncc2)cc1

Outgoing:
1. 0.771
2. 0.301
3. 39.2
4. 3.86
5. 0.564
6. 17.2
7. 1.2

Give me MDR1-MDCK efflux ratio for each of these compounds, listed below.
1. O=C(NCc1ccc2c(c1)OCCO2)c1sccc1C1CC1
2. O=C(NCc1nnc2n1-c1ccccc1CC2)c1ccc2ccccc2c1
3. CSCc1csc(NC(C)=O)n1
4. O=C(/C=C\n1cnc(-c2cc(C(F)(F)F)cc(C(F)(F)F)c2)n1)NNc1cnccn1

Outgoing:
0.474
6.88
0.631
1.96

Give me MDR1-MDCK efflux ratio for each of these compounds, listed below.
1. O=C1CCC(=O)N1CCSc1ncc(-c2ccc(F)cc2)[nH]1
2. CN(Cc1ccccc1)C1(C(=O)N2CCNC(=O)CC2)Cc2ccccc2C1
3. Cc1cnc(-n2cnnc2)c(-c2cccc(Cl)c2Cl)c1

Outgoing:
1: 2.4; 2: 8.66; 3: 2.25

Give me MDR1-MDCK efflux ratio for each of these compounds, listed below.
1. Cc1ccc(C2=NC3(CCN(Cc4ccc(F)cc4)CC3)NC2=O)cc1
2. CCCNS(=O)(=O)Nc1ncnc(OCCOc2ncc(Br)cn2)c1-c1ccc(Br)cc1

Outgoing:
[0.541, 0.933]

Give me MDR1-MDCK efflux ratio for each of these compounds, listed below.
1. CN(C)C(=O)C1(Cc2ccccc2-c2ccccc2)CCN(C(=O)c2cnn(C)c2)CC1
2. c1cc(CN2CCC(c3ccn[nH]3)CC2)ccn1
3. COCC(=O)Nc1cccc(-n2cccc2)c1

Outgoing:
1. 25.1
2. 1.05
3. 0.498
